B1: Pistol ribozyme (parent)
chain: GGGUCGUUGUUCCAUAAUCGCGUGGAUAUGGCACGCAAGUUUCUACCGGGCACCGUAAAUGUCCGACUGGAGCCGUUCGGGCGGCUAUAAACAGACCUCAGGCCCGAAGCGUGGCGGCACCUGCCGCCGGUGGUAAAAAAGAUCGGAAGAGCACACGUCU

Variants of: B1
procedureSummary: aptazyme ON/OFF ratio, guanine; higher = stronger switching; co-transcriptional cleavage with and without guanine
Reported aptazyme ON/OFF ratio values for a set of variants
Quick one: just the number, no unit, thanks!

Here's what some known entries look like.
• U7C U8G G9C U10A U11G C12A C13U = 1.18
• U7C U8C G9A U10C U11G C12A C13G = 1.16

Ask | // aptazyme ON/OFF ratio lookup, key: U7C U8C G9C U10A U11A C12A C13U
Reply | 1.13

Ask | // aptazyme ON/OFF ratio lookup, key: U7G U8A U10G U11C C12U C13A
Reply | 1.46

Ask | // aptazyme ON/OFF ratio lookup, key: U7G G9A U10C U11G C12A C13A
Reply | 1.07

Ask | // aptazyme ON/OFF ratio lookup, key: U7A G9U U10A U11C C12G C13U
Reply | 1.13

Ask | // aptazyme ON/OFF ratio lookup, key: U7A U8C G9C U10G U11G C12G
Reply | 1.13

Ask | // aptazyme ON/OFF ratio lookup, key: U8C G9C U10G U11C C13G
Reply | 1.22

Ask | // aptazyme ON/OFF ratio lookup, key: U7A U10C U11C C12U C13U
Reply | 1.07

Ask | // aptazyme ON/OFF ratio lookup, key: U7A U8G G9A U10A U11C C13A
Reply | 1.05
